Test system: Plasmodium falciparum
Assay: NOVARTIS: Inhibition of Plasmodium falciparum 3D7 (drug-susceptible) proliferation in erythrocyte-based infection assay
Type: functional, organism-based
Details: Plasmodium falciparum, 3D7
Please provide measured EC50 for the entries that follow.

Retrieve EC50 measured for CCOc1ccccc1C=NNc1nc(Nc2ccccc2)nc(Nc2ccccc2)n1 and print it. 2050 nM

Retrieve EC50 measured for COC(=O)C1=C(C)N(c2ccc(N(C)C)cc2)C(C)=C(C(=O)OC)C1c1ccc(Br)cc1 and print it. > 1250 nM

Retrieve EC50 measured for CCCCc1ccc(C(=O)N(C)CCCNc2ccnc3cc(Cl)ccc23)cc1 and print it. 427 nM

Retrieve EC50 measured for CCCOc1ccc(C2Sc3ccccc3N=C3C2=C(O)c2ccccc23)cc1OC (stereo not given) and print it. 483 nM

Retrieve EC50 measured for CCOC(=O)C1=C(N)OC2=C(C(=O)CC(c3ccccc3)C2)C1c1ccc(Cl)cc1Cl (stereo not given) and print it. > 1250 nM

Retrieve EC50 measured for O=C(CN1CCN(C(=O)c2ccco2)CC1)Nc1ccccc1Br and print it. 358 nM

Retrieve EC50 measured for CCCCCN(C(=O)c1ccc(Cl)cc1)C(CC)c1nc2ccccc2c(=O)n1-c1ccccc1OC (stereo not given) and print it. 878 nM

Retrieve EC50 measured for COc1cc(C2C(C(=O)OCC(C)C)=C(C)NC3=C2C(=O)CC(c2ccccc2)C3)cc(Br)c1O (stereo not given) and print it. 850 nM

Retrieve EC50 measured for CC(=O)N1CCOC1C(C)(C)CC=C(C)CCC=C(C)C (stereo not given) and print it. 2040 nM

Retrieve EC50 measured for COC(=O)C1=C(C)NC(=Cc2cc(C)n(-c3cc(C)ccc3C)c2C)C1=O and print it. 9.53 nM
